Known remaining activity at 10 µM of a selection of compounds
target.or.test.system: SOCS2 (Homo sapiens, UniProt O14508)
Construct: made in house; host or cells: HEK293 (transient transfection), unpurified extract
Sequence (O14508 whole entry): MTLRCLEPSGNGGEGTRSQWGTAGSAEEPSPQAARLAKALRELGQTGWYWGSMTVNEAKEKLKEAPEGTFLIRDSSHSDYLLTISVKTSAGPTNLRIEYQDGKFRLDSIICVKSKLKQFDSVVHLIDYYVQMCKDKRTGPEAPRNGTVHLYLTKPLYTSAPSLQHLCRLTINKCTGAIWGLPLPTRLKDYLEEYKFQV
experiment.description: biochemical
Assay type: binding
experimental.conditions: primary screen, 10 μM; read-out: percent of DMSO vehicle control
Expressed in %, but write only the number.

Record excerpt, results attached:
O=C(CCl)Nc1cccc(CNC(=O)[C@H](Cc2ccc(OP(=O)(O)O)cc2)NC(=O)Cc2ccc(F)cc2)c1 [MN551]
0
C/C(=C\C(=O)N[C@H](C(=O)N1CCC[C@H]1C(=O)N(c1ccccc1)c1ccc(I)cc1)C(C)(C)C)c1ccc(OP(=O)(O)O)cc1 [STAT6-IN-1]
0
O=C(COc1ccc2cc(C(=O)Nc3ccccc3)ccc2c1)NCc1ccc(OP(=O)(O)O)c(OP(=O)(O)O)c1 [Stafib-1]
47.9

Next up:
Query string: Which measured remaining activity at 10 µM value corresponds to CC(C)(C)[C@H](NC(=O)/C=C/c1ccc(OP(=O)(O)O)cc1)C(=O)N1CCC[C@H]1C(=O)N(c1ccccc1)c1ccc(I)cc1 [STAT6-IN-3] ?
Result string: 7.9
